Target Of Assay: human Edg-1 (S1P1) (Homo sapiens)
Construct: expressed in transfected cells; host or cells: HEK-293
Method: S1P1 binding inhibition test (membrane, [33P]-S1P)
Experimental Parameters: compound 10 μM; [33P]-S1P 0.1 nM; human Edg-1 (S1P1) HEK-293 membrane fraction; read-out: Binding test (membrane) % inhibition (10 μM)
Measurement Label: inhibition at 10 µM (%)

Compound	inhibition at 10 µM / %
CCn1c(C(C)NS(=O)(=O)c2ccc(Cl)c(Cl)c2)cnc1Oc1ccc2ccccc2c1 (stereo not shown)	98.5
CCn1c(C(C)NS(=O)(=O)c2ccc(Cl)c(Cl)c2)cnc1OCCCOC (stereo not shown)	95.9
CCn1c(C(C)NS(=O)(=O)c2ccc(Cl)c(Cl)c2)cnc1Oc1ccc(C)cc1 (stereo not shown)	101
CCn1c(C(C)NS(=O)(=O)c2ccc(C(=O)OC)n2C)cnc1Oc1ccc(C)cc1 (stereo not shown)	93.7
CCn1c(C(C)NS(=O)(=O)/C=C/c2ccccc2)cnc1Oc1cccc(N2CCN(C)CC2)c1 (stereo not shown)	98.9
CCn1c(C(C)NS(=O)(=O)c2cccc(Cl)c2)cnc1Oc1ccc(C)cc1 (stereo not shown)	72.4
CC(NS(=O)(=O)c1ccc2c(Cl)cccc2c1)c1cnc(Oc2ccc(F)cc2)n1C (stereo not shown)	92
CCC(NS(=O)(=O)c1ccc(Cl)c(Cl)c1)c1cnc(Oc2ccc(F)cc2)n1CC (stereo not shown)	100
CCn1c(C(C)NS(=O)(=O)c2ccc(Br)c(C)c2)cnc1Oc1ccc(C)cc1 (stereo not shown)	100
CCn1c(C(C)NS(=O)(=O)c2ccc(Cl)c(Cl)c2)cnc1Oc1cccc(-n2cccc2)c1 (stereo not shown)	100

---

Target Of Assay: human Edg-1 (S1P1) (Homo sapiens, UniProt P21453)
Construct: expressed in transfected cells; host or cells: HEK-293
Sequence (P21453 whole entry): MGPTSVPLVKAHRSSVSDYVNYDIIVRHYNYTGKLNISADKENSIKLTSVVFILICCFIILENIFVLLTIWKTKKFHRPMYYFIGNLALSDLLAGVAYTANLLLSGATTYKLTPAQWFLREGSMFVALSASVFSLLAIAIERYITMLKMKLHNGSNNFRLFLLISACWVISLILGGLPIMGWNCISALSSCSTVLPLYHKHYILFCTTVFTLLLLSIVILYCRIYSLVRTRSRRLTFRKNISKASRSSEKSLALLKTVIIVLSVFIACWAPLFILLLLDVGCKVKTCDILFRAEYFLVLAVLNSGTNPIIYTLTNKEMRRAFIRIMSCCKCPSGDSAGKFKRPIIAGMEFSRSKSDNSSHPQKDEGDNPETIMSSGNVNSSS
Method: S1P1 binding inhibition test (membrane, [33P]-S1P)
Experimental Parameters: compound 10 μM; [33P]-S1P 0.1 nM; human Edg-1 (S1P1) HEK-293 membrane fraction; read-out: Binding test (membrane) % inhibition (10 μM)
Measurement Label: inhibition at 10 µM (%)

Compound	Target Of Assay	Quantity Unit	Experimental Value
CCn1c(C(C)NS(=O)(=O)c2ccc(Br)c(Br)c2)cnc1Oc1ccc(C)cc1 (stereo not drawn) [Compound 72]	human Edg-1 (S1P1) (Homo sapiens, UniProt P21453)	%	90.1
CCn1c(C(C)NS(=O)(=O)c2ccc(C#N)cc2Cl)cnc1Oc1ccc(C)cc1 (stereo not drawn) [Compound 89]	human Edg-1 (S1P1) (Homo sapiens, UniProt P21453)	%	71.8
CCn1c(C(C)NS(=O)(=O)c2cc(F)c(Br)cc2F)cnc1Oc1ccc(C)cc1 (stereo not drawn) [Compound 67]	human Edg-1 (S1P1) (Homo sapiens, UniProt P21453)	%	84.6
C=Cc1ccc(S(=O)(=O)NC(C)c2cnc(Oc3ccc(C)cc3)n2CC)cc1 (stereo not drawn) [Compound 40]	human Edg-1 (S1P1) (Homo sapiens, UniProt P21453)	%	81.2
CCn1c(C(C)NS(=O)(=O)c2ccc(Cl)c(Cl)c2)cnc1Oc1ccccc1 (stereo not drawn) [Compound 204]	human Edg-1 (S1P1) (Homo sapiens, UniProt P21453)	%	95.7

(A) CCc1ccc(S(=O)(=O)NC(C)c2cnc(Oc3ccc(C)cc3)n2CC)cc1 (stereo not drawn) [Compound 21]
(B) CCn1c(C(C)NS(=O)(=O)c2cc(C)c(Cl)cc2C)cnc1Oc1ccc(C)cc1 (stereo not drawn) [Compound 16]
// returns A or B , whichever has the lower inhibition at 10 µM Select an item and report its label. A
(A: 66.8%, B: 109%)
